This collection of values is drawn from PubChem BioAssay.

# test_details: human hepatoma cell viability loss – ATP luminescence, cytotoxicity control for P. falciparum antimalarial project, primary screen (AID 2303);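 also: 0% = DMSO wells and 100% = digitonin-killed cells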
# test_settings: HepG2 viability, 24-48 h, at 10 µM, stronger effect = higher value
property_name: inhibition (%)
Give bare numbers, in %.

Consider the following illustrative entries.
>  <molecule>
COc1cc(F)c2ncc(Cl)c(CCN3CCC(NCc4ccc5c(c4)OCCO5)CC3)c2c1

>  <inhibition, %>
35

$$$$
>  <molecule>
Cc1ccc(-n2cc(CNCC3CCN(CCO)CC3)c(-c3ccc(F)cc3)n2)cc1

>  <inhibition, %>
29

$$$$
>  <molecule>
O=C(Nc1ccc2c(c1)CCC2)c1cnc(N2CCN(c3ccncc3)CC2)c(Cl)c1

>  <inhibition, %>
33

$$$$
>  <molecule>
CC(Cl)=CCc1c(C)[nH]c2c(ccc3ccccc32)c1=O

>  <inhibition, %>
24

$$$$

Hi! Can you tell me inhibition for each of these molecules?
1. Cc1noc(-c2cccs2)c1C(=O)NCCc1cccc(Cl)c1
2. C[C@H](Cc1ccc(OCCNC[C@H](O)c2cccc(Cl)c2)cc1)NC[C@H](O)c1ccc(Cl)c(Cl)c1
3. CCCCCCCN1CC[C@H](NC(=O)Nc2ccnc3ccc(OC)cc23)[C@H](C(=O)OCC)C1

(A)
[-17, 69, 11]
